Tested on: Rattus norvegicus
Test: Total drug recovery in female Sprague-Dawley rat treated with [14C]-AMG 221 at 2 mg/kg, po measured over 48 hrs by liquid scintillation counting analysis
Type: ADME, organism-based
Design: dose 2 mg/kg, route oral
Conditions: in vivo
property_name: Drug recovery (%)

# count of solved cases: 2
compound: CC(C)[C@]1(C)SC(N[C@H]2C[C@H]3C[C@@H]2[C@H](O)C3)=NC1=O
scale_unit: %
recorded_measurement: 3.2
--
compound: C[C@H](CO)[C@]1(C)SC(N[C@H]2C[C@H]3C[C@@H]2C[C@@H]3O)=NC1=O
scale_unit: %
recorded_measurement: 1.2

[a] C[C@@H](CO)[C@]1(C)SC(N[C@H]2C[C@H]3C[C@@H]2[C@H](O)C3)=NC1=O
[b] CC(C)[C@]1(C)SC(N[C@H]2C[C@H]3C[C@@H]2CC3=O)=NC1=O
Select one: a or b . Criterion: greater recorded Drug recovery. // return label of chosen record b
(b: 9.1%, a: 0.9%)

====

Test: Retention time of the compound in Sprague-Dawley rat urine treated with [14C]-AMG 221 at 2 mg/kg, po measured over 24 hrs by LC-MS/HPLC radiometric analysis
Type: ADME, organism-based
Set-up: dose 2 mg/kg, route oral
Settings: in vivo
property_name: Retention_time (min)

molecule_smiles: CC(C)[C@]1(C)SC(N[C@H]2C[C@H]3C[C@@H]2[C@H](O)[C@@H]3O)=NC1=O
Retention_time (min): 19.2

molecule_smiles: C[C@H](CO)[C@]1(C)SC(N[C@H]2C[C@H]3C[C@@H]2C[C@@H]3O)=NC1=O
Retention_time (min): 7.2

[a] C[C@H](CO)[C@]1(C)SC(N[C@H]2C[C@H]3C[C@@H]2[C@H](O)C3)=NC1=O
[b] C[C@H](C(=O)O)[C@]1(C)SC(N[C@H]2C[C@@H]3CC[C@H]2C3)=NC1=O
Select one: a or b . Criterion: greater recorded Retention_time. // return label of chosen record b
(b: 25.8 min, a: 9.9 min)

====

Assay: Drug excretion in female Sprague-Dawley rat urine treated with [14C]-AMG 221 at 2 mg/kg, po measured over 24 hrs by LC-MS/HPLC radiometric analysis
Type: ADME, organism-based
Design: dose 2 mg/kg, route oral
Conditions: in vivo
property_name: Drug excretion (%)

# count of solved cases: 6
compound: CC(C)(O)[C@]1(C)SC(N[C@H]2C[C@H]3C[C@@H]2C[C@@H]3O)=NC1=O
scale_unit: %
Drug excretion: 24

compound: C[C@H](CO)[C@]1(C)SC(N[C@H]2C[C@H]3C[C@@H]2C[C@H]3O)=NC1=O
scale_unit: %
Drug excretion: 24

compound: C[C@@H](CO)[C@]1(C)SC(N[C@H]2C[C@@H]3CC[C@H]2C3)=NC1=O
scale_unit: %
Drug excretion: 37

compound: CC(C)[C@]1(C)SC(N[C@H]2C[C@H]3C[C@@H]2[C@H](O)C3)=NC1=O
scale_unit: %
Drug excretion: 37

compound: C[C@@H](CO)[C@]1(C)SC(N[C@H]2C[C@H]3C[C@@H]2C[C@H]3O)=NC1=O
scale_unit: %
Drug excretion: 24

compound: C[C@@H](CO)[C@]1(C)SC(N[C@H]2C[C@H]3C[C@@H]2[C@H](O)C3)=NC1=O
scale_unit: %
Drug excretion: 24

[a] CC(C)[C@]1(C)SC(N[C@H]2C[C@H]3C[C@@H]2C[C@H]3O)=NC1=O
[b] CC(O)(CO)[C@]1(C)SC(N[C@H]2C[C@@H]3CC[C@H]2C3)=NC1=O (stereo partly drawn)
Select one: a or b . Criterion: greater recorded Drug excretion. // return label of chosen record a
